Tested on: P. aeruginosa strain WC-453
assay-notes: Time-kill assay in HEPES or CAA with 25% human serum (Tables 7, 8)
Type: cell-based, Pseudomonas aeruginosa
experimental-parameters: 25 mM HEPES pH 7.4; lysin 10 μg/ml; 3 hr; WC-453
Please respond with reported HEPES (Log10 CFU/mL), 3 hr for every item in the list.

Need HEPES (Log10 CFU/mL), 3 hr of GN76: lysin obtained from Acinetobacter phage vB_AbaP_CEB1 (SEQ ID NO: 203) (protein, Acinetobacter phage vB_AbaP_CEB1) MILTKDGFGIIRNELFGGKLDQTQVDAINFIVEKATESGLSYPEAAYLLATIYHETGLPSGYRTMQPIKEAGSDNYLRSKKYYPYIGYGYVQLTWKENYGRIGKLIGIDLIKNPEKALEPLIAIQIAIKGMLNGWFTGVGFRRKRPVSKYNKQQYIAARNIINGKDKAELIAKYAIIFERALRSL , thanks.
<3.7 Log10 CFU/mL

Continue with GN93: lysin-AMP construct: cationic peptide (SEQ ID NO: 120) and linker N-terminal to GN14 lysin (SEQ ID NO: 62) (protein) MKFFKFFKFFKAGAGAGAGAGAGAGAGASNNELPWVAEARKYIGLREDTSKTSHNPKLLAMLDRMGEFSNESRAWWHDDETPWCGLFVGYCLGVAGRYVVREWYRARAWEAPQLTKLDRPAYGALVTFTRSGGGHVGFIVGKDARGNLMVLGGNQSNAVSIAPFAVSRVTGYFWPSFWRNKTAVKSVPFEERYSLPLLKSNGELSTNEA
<3.7 Log10 CFU/mL
